target: NPFF1 receptor (Homo sapiens)
Sequence (Q9GZQ6 whole entry): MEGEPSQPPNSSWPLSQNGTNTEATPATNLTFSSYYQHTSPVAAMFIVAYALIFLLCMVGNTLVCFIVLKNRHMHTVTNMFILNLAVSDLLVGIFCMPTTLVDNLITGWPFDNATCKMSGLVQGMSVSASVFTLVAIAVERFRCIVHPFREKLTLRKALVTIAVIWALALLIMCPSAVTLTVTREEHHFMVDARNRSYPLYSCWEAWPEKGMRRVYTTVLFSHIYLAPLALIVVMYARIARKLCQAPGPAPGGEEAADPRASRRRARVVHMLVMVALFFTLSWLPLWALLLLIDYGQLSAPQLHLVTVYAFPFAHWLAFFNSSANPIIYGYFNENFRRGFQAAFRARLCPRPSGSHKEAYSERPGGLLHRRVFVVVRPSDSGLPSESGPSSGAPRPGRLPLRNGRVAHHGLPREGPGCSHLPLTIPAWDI
Could you please report measured IC50 for the items listed next?
One number for each entry, in nM.

Worked set:
stdin: For NPFF1 receptor (Homo sapiens), give the measured IC50 of the entry CCCC1CCc2nc(NC(=N)N)nc(C)c2C1 (racemic)
stdout: 1

stdin: For NPFF1 receptor (Homo sapiens), give the measured IC50 of the entry Cc1nc(NC(=N)N)nc2c1C(C)CCC2 (racemic)
stdout: 7

stdin: For NPFF1 receptor (Homo sapiens), give the measured IC50 of the entry Cc1nc(NC(=N)N)nc2c1CC(C(C)C)CC2 (racemic)
stdout: 2

stdin: For NPFF1 receptor (Homo sapiens), give the measured IC50 of the entry Cc1nc(NC(=N)N)nc2c1CCCCCC2 (racemic)
stdout: 60

stdin: For NPFF1 receptor (Homo sapiens), give the measured IC50 of the entry CCC(C)(C)C1CCc2nc(NC(=N)N)nc(C)c2C1 (racemic)
stdout: 19

Now consider the entry below.
stdin: For NPFF1 receptor (Homo sapiens), give the measured IC50 of the entry Cc1nc(NC(=N)N)nc2c1CCCC2C(C)(C)C (racemic)
stdout: 39
